Answer each item with its documented Papp A→B.
# assay-info: Caco-2 cell monolayer membrane transport assay
# study-conditions: human, Caco-2, Papp A-B, Sample-02, Caco-2; A-B; Sample-02
Form entry: value (×10⁻⁶ cm/s) — number only.

Challenge: I am curious: what Papp A→B value has been reported for CO[C@H]1C(=O)[C@]2(C)C=C[C@@H](O)[C@](CO)(OC(C)=O)[C@H]2[C@H](OC(=O)c2ccccc2)[C@]2(O)C[C@H](OC(=O)[C@H](O)[C@@H](NC(=O)OC(C)(C)C)c3ccccc3)C(C)=C1C2(C)C ?
Response given: 6.39

Challenge: Subsequent entry: CO[C@H]1C(=O)[C@]2(C)[C@@H](OC(=O)N(C)C)C[C@H]3OC[C@@]3(OC(C)=O)[C@H]2[C@H](OC(=O)c2ccccc2)[C@]2(O)C[C@H](OC(=O)[C@H](O)[C@@H](NC(=O)OC(C)(C)C)c3ccccc3)C(C)=C1C2(C)C
Response given: 9.91

Challenge: Moving on to the next molecule: CO[C@H]1C(=O)[C@]2(C)[C@@H](OC(=O)N(C)C)C[C@H]3OC[C@@]3(OC(C)=O)[C@H]2[C@H](OC(=O)c2ccccc2)[C@]2(O)C[C@H](OC(=O)[C@H](O)[C@@H](NC(=O)N(C)C)c3ccccc3)C(C)=C1C2(C)C
Response given: 2.87

Challenge: Okay, and CO[C@H]1C(=O)[C@]2(C)[C@@H](OC(=O)N(C)C)C[C@H]3OC[C@@]3(OC(C)=O)[C@H]2[C@H](OC(=O)c2ccccc2)[C@]2(O)C[C@H](OC(=O)[C@H](O)[C@@H](NC(=O)c3ccccc3)c3ccccc3)C(C)=C1C2(C)C ?
Response given: 3.38

---

# Test system: K562 leukemia
# assay-info: MTT assay, proliferation inhibition
# Assay type: cell-based
# study-conditions: Homo sapiens, read-out: Proliferation inhibition rate
recorded-metric: inhibition at 1 µM

Challenge: Requested read-out: inhibition at 1 µM. Entry: CC(=O)O[C@H]1C(=O)[C@@]2(C)[C@H]([C@H](OC(=O)c3ccccc3)[C@]3(O)C[C@H](OC(=O)[C@H](O)[C@@H](NC(=O)c4ccccc4)c4ccccc4)C(C)=C1C3(C)C)[C@]1(OC(C)=O)CO[C@@H]1C[C@@H]2O [Paclitaxel, reference compound]
Response given: 96.6%

Challenge: Param item: CO[C@H]1C(=O)[C@]2(C)C=C[C@@H](O)[C@](CO)(OC(C)=O)[C@H]2[C@H](OC(=O)c2ccccc2)[C@]2(O)C[C@H](OC(=O)[C@H](O)[C@@H](NC(=O)OC(C)(C)C)c3ccccc3)C(C)=C1C2(C)C [PCMI-44]
Response given: 94.4%

Challenge: What about this molecule? COC(=O)O[C@H]1C(=O)[C@]2(C)[C@@H](OC)C[C@H]3OC[C@@]3(OC(C)=O)[C@H]2[C@H](OC(=O)c2ccccc2)[C@]2(O)C[C@H](OC(=O)[C@H](O)[C@@H](NC(=O)N(C)C)c3ccccc3)C(C)=C1C2(C)C [PCMI-29]
Response given: 90.8%

Challenge: Also check CO[C@H]1C(=O)[C@]2(C)[C@@H](OC(=O)N(C)C)C[C@H]3OC[C@@]3(OC(C)=O)[C@H]2[C@H](OC(=O)c2ccccc2)[C@]2(O)C[C@H](OC(=O)[C@H](O)[C@@H](NC(=O)OC(C)(C)C)c3ccccc3)C(C)=C1C2(C)C [PCMI-31]
Response given: 93.2%

Challenge: Now consider CCSC(=O)O[C@H]1C[C@H]2OC[C@@]2(OC(C)=O)[C@H]2[C@H](OC(=O)c3ccccc3)[C@]3(O)C[C@H](OC(=O)[C@H](O)[C@@H](NC(=O)N(C)C)c4ccccc4)C(C)=C([C@@H](OC)C(=O)[C@]12C)C3(C)C [PCMI-40] .
Response given: 92.7%

Challenge: Now the same for COC(=O)O[C@H]1C(=O)[C@]2(C)[C@@H](OC)C[C@H]3OC[C@@]3(OC(C)=O)[C@H]2[C@H](OC(=O)c2ccccc2)[C@]2(O)C[C@H](OC(=O)[C@H](O)[C@@H](NC(=O)OC(C)(C)C)c3ccccc3)C(C)=C1C2(C)C [PCMI-26]
Response given: 91.4%

Challenge: Then what about the molecule COC(=O)O[C@H]1C[C@H]2OC[C@@]2(OC(C)=O)[C@H]2[C@H](OC(=O)c3ccccc3)[C@]3(O)C[C@H](OC(=O)[C@H](O)[C@@H](NC(=O)OC(C)(C)C)c4ccccn4)C(C)=C([C@@H](OC)C(=O)[C@]12C)C3(C)C [PCMI-38] ?
Response given: 94.7%

Challenge: Lookup CO[C@H]1C[C@H]2OC[C@@]2(OC(C)=O)[C@H]2[C@H](OC(=O)c3ccccc3)[C@]3(O)C[C@H](OC(=O)[C@H](O)[C@@H](NC(=O)OC(C)(C)C)c4ccccn4)C(C)=C([C@@H](OC(=O)N(C)C)C(=O)[C@]12C)C3(C)C [PCMI-24]
Response given: 92.2%

---

Assign inhibition at 1 µM to each entry below.
# System: K562 leukemia
# assay-info: MTT assay, proliferation inhibition
# Type: cell-based
# study-conditions: Homo sapiens, read-out: Proliferation inhibition rate
Number only, in %; omit the unit.

Challenge: State the recorded inhibition at 1 µM for this entry: CO[C@H]1C(=O)[C@]2(C)[C@@H](OC(=O)N(C)C)C[C@H]3OC[C@@]3(OC(C)=O)[C@H]2[C@H](OC(=O)c2ccccc2)[C@]2(O)C[C@H](OC(=O)[C@H](O)[C@@H](NC(=O)OC(C)(C)C)c3ccccn3)C(C)=C1C2(C)C [PCMI-33]
Response given: 91.1

Challenge: Check CO[C@H]1C[C@H]2OC[C@@]2(OC(C)=O)[C@H]2[C@H](OC(=O)c3ccccc3)[C@]3(O)C[C@H](OC(=O)[C@H](O)[C@@H](NC(=O)c4ccccc4)c4ccccc4)C(C)=C([C@@H](OC(=O)N(C)C)C(=O)[C@]12C)C3(C)C [PCMI-23] too.
Response given: 93.8

Challenge: Another molecule: COC(=O)O[C@H]1C[C@H]2OC[C@@]2(OC(C)=O)[C@H]2[C@H](OC(=O)c3ccccc3)[C@]3(O)C[C@H](OC(=O)[C@H](O)[C@@H](NC(=O)OC(C)(C)C)c4ccccc4)C(C)=C([C@@H](OC)C(=O)[C@]12C)C3(C)C [PCMI-36]
Response given: 94.5

Challenge: Now the same for COC(=O)O[C@H]1C(=O)[C@]2(C)[C@@H](OC)C[C@H]3OC[C@@]3(OC(C)=O)[C@H]2[C@H](OC(=O)c2ccccc2)[C@]2(O)C[C@H](OC(=O)[C@H](O)[C@H](CC(C)C)NC(=O)OC(C)(C)C)C(C)=C1C2(C)C [PCMI-28]
Response given: 92.6

Challenge: Next molecule up: CO[C@H]1C(=O)[C@]2(C)[C@@H](OC(=O)N(C)C)C[C@H]3OC[C@@]3(OC(C)=O)[C@H]2[C@H](OC(=O)c2ccccc2)[C@]2(O)C[C@H](OC(=O)[C@H](O)[C@@H](NC(=O)N(C)C)c3ccccc3)C(C)=C1C2(C)C [PCMI-35]
Response given: 92.7

Challenge: Same again, this time with CO[C@H]1C(=O)[C@]2(C)C=C[C@@H](O)[C@](CO)(OC(C)=O)[C@H]2[C@H](OC(=O)c2ccccc2)[C@]2(O)C[C@H](OC(=O)[C@H](O)[C@@H](NC(=O)c3ccccc3)c3ccccc3)C(C)=C1C2(C)C [PCMI-43]
Response given: 80.9

Challenge: Now this one: CO[C@H]1C(=O)[C@]2(C)CC[C@H]3OC[C@@]3(OC(C)=O)[C@H]2[C@H](OC(=O)c2ccccc2)[C@]2(O)C[C@H](OC(=O)[C@H](O)[C@@H](NC(=O)OC(C)(C)C)c3ccccc3)C(C)=C1C2(C)C [PCMI-41]
Response given: 94.3

Challenge: // query: CO[C@H]1C[C@H]2OC[C@@]2(OC(C)=O)[C@H]2[C@H](OC(=O)c3ccccc3)[C@]3(O)C[C@H](OC(=O)[C@H](O)[C@@H](NC(=O)OC(C)(C)C)c4ccccc4)C(C)=C([C@@H](OC(=O)N(C)C)C(=O)[C@]12C)C3(C)C [PCMI-22]
Response given: 92.2

Challenge: Note, next up: CO[C@H]1C(=O)[C@]2(C)CC[C@H]3OC[C@@]3(OC(C)=O)[C@H]2[C@H](OC(=O)c2ccccc2)[C@]2(O)C[C@H](OC(=O)[C@H](O)[C@H](CC(C)C)NC(=O)OC(C)(C)C)C(C)=C1C2(C)C [PCMI-42]
Response given: 94.3

Challenge: Okay, and CO[C@H]1C(=O)[C@]2(C)[C@@H](OC(=O)N(C)C)C[C@H]3OC[C@@]3(OC(C)=O)[C@H]2[C@H](OC(=O)c2ccccc2)[C@]2(O)C[C@H](OC(=O)[C@H](O)[C@H](CC(C)C)NC(=O)OC(C)(C)C)C(C)=C1C2(C)C [PCMI-34] ?
Response given: 92.9
